# target desc: T1, human CD88 (complement component 5a receptor 1) (human, UniProt P21730 1-350)
# T1 construct: Native antigen on granulocytes of lysed human whole blood / PBMC preparations, read by flow cytometry; also called C5AR1; native CD88 antigen expressed on granulocytes
# T1 chain: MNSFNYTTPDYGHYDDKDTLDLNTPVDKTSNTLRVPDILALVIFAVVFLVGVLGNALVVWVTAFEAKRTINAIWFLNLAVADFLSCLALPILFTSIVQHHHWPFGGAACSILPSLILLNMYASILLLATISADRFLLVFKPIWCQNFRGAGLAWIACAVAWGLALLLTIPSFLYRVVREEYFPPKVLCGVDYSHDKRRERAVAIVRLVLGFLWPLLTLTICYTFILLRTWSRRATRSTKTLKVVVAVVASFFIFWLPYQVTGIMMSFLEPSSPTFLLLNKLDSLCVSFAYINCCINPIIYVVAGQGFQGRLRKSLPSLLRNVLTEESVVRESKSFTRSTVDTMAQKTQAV
# protocol: flow cytometry on granulocytes, PE goat anti-rabbit IgG secondary

{"binder": "Variant 3 rabbit anti-human CD88 mAb, R116A in heavy chain and Y51A in light chain (antibody, V domains shown, Recombinant double mutant, made in 293F cells; also called third variant) VH: QSVKESEGGLFKPADTLTLTCTVSGFSVNNKGVMWVRQAPGNGLEWIGSIGISGRVTYATWAKSRSTITRDTNLNTVTLKVTSLTVADTATYFCAIGSNIWGPGTLVTVSS VL: ELVLTQTPSSVSAAVGGTVTINCQSSQSVANNNLLAWYQQKPGQPPKLLIYQASTLDSGVPSRFKGSGTGTHFTLTISDLECDDAATYYCQGGYNGNGIAAFGGGTEVVVDG", "binding result": "no binding"}
{"binder": "Variant 1 rabbit anti-human CD88 mAb, R116A in heavy chain CDR-H3 (antibody, V domains shown, No signal peptide limits are stated; also called first variant) VH: QSVKESEGGLFKPADTLTLTCTVSGFSVNNKGVMWVRQAPGNGLEWIGSIGISGRVTYATWAKSRSTITRDTNLNTVTLKVTSLTVADTATYFCAIGSNIWGPGTLVTVSS VL: ELVLTQTPSSVSAAVGGTVTINCQSSQSVYNNNLLAWYQQKPGQPPKLLIYQASTLDSGVPSRFKGSGTGTHFTLTISDLECDDAATYYCQGGYNGNGIAAFGGGTEVVVDG", "binding result": "no binding"}
{"binder": "Variant 4 rabbit anti-human CD88 mAb, R116A in heavy chain and Y51F in light chain (antibody, V domains shown, Recombinant double mutant, made in 293F cells; also called fourth variant) VH: QSVKESEGGLFKPADTLTLTCTVSGFSVNNKGVMWVRQAPGNGLEWIGSIGISGRVTYATWAKSRSTITRDTNLNTVTLKVTSLTVADTATYFCAIGSNIWGPGTLVTVSS VL: ELVLTQTPSSVSAAVGGTVTINCQSSQSVFNNNLLAWYQQKPGQPPKLLIYQASTLDSGVPSRFKGSGTGTHFTLTISDLECDDAATYYCQGGYNGNGIAAFGGGTEVVVDG", "binding result": "no binding"}
{"binder": "Variant 2 rabbit anti-human CD88 mAb, Y51A in light chain CDR-L1 (antibody, V domains shown, Recombinant, made in 293F cells; also called second variant) VH: QSVKESEGGLFKPADTLTLTCTVSGFSVNNKGVMWVRQAPGNGLEWIGSIGISGRVTYATWAKSRSTITRDTNLNTVTLKVTSLTVADTATYFCRIGSNIWGPGTLVTVSS VL: ELVLTQTPSSVSAAVGGTVTINCQSSQSVANNNLLAWYQQKPGQPPKLLIYQASTLDSGVPSRFKGSGTGTHFTLTISDLECDDAATYYCQGGYNGNGIAAFGGGTEVVVDG", "binding result": "no binding"}
